- Assay Text: doxorubicin toxicity protection in MRP-1 cells – H69AR cells, CellTiter-Glo, duplicate, MRP-1 activator project, pilot screen (AID 807);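 note: compound pretreatment 18-22 h then 72 h combined with doxorubicin; 0% = doxorubicin alone and 100% = vehicle without doxorubicin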
- Conditions Used: H69AR viability with doxorubicin, CellTiter-Glo luminescence; at 10 µM; stronger effect = higher value

[
  {
    "Compound": "CCOC(=O)CC1C(=O)NCCN1C(=O)c1cc2c(=O)n3cccc(C)c3nc2s1 (stereo unspecified)",
    "Units": "%",
    "viability increase": -3.53
  },
  {
    "Compound": "COC(=O)c1cccc(NC(=O)C2COc3ccccc3O2)c1C (stereo unspecified)",
    "Units": "%",
    "viability increase": 0.68
  },
  {
    "Compound": "Cc1ccc2nc(NC(=O)Cn3cc4c(n3)CCCCC4)sc2c1",
    "Units": "%",
    "viability increase": -3.78
  },
  {
    "Compound": "CCCCOc1ccc(S(=O)(=O)Nc2cc(OC)ccc2OC)cc1",
    "Units": "%",
    "viability increase": 0.92
  },
  {
    "Compound": "CC1CCN(S(=O)(=O)c2cccc(C(=O)Nc3ccccn3)c2)CC1",
    "Units": "%",
    "viability increase": -1.96
  },
  {
    "Compound": "CCc1cc2c(=O)c(-c3nc4ccccc4[nH]3)coc2c(CN2CCC(C)CC2)c1O",
    "Units": "%",
    "viability increase": -2.14
  },
  {
    "Compound": "COc1ccccc1N1C(=O)CCC1(C#N)c1ccccc1 (stereo unspecified)",
    "Units": "%",
    "viability increase": -1.56
  },
  {
    "Compound": "CC1=C(C(=O)OCc2ccccc2)C(c2ccco2)n2ncnc2N1 (stereo unspecified)",
    "Units": "%",
    "viability increase": -2.11
  },
  {
    "Compound": "CCOC(=O)Cc1nnc(NC(=O)C(CC)Sc2nc(C)cc(=O)[nH]2)s1 (stereo unspecified)",
    "Units": "%",
    "viability increase": -0.54
  },
  {
    "Compound": "CC(=O)N1CCN(CCN=CC2=C(O)CC(c3cccs3)CC2=O)CC1 (stereo unspecified)",
    "Units": "%",
    "viability increase": -0.76
  },
  {
    "Compound": "COCCCN(C)C1CCN(C(=O)Nc2ccc(F)cc2)CC1",
    "Units": "%",
    "viability increase": 0.68
  }
]

---

- Assay Text: reduced viability of SK-BR-3 breast cancer cells – cell-based, 24 h, human, pilot screen (AID 572);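 note: compound exposure lasted between 18 and 24 h rather than exactly 24 h; 100% = carrier-treated control wells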
- Conditions Used: SK-BR-3 viability, CellTiter-Glo luminescence, at 10 µM, stronger effect = lower value

[
  {
    "Compound": "Cc1ccc(-n2c3c(cc(C(=O)NCCCN4CCOCC4)c2=O)C(=O)CC(C)(C)C3)cc1",
    "viability (%)": 109
  },
  {
    "Compound": "COCCn1c(SCC(=O)Nc2ccc3c(c2)OCCO3)nc2c(c1=O)SC(C)C2 (stereo not drawn)",
    "viability (%)": 95
  },
  {
    "Compound": "c1ccc(-n2ncc3c(NC4CCCCCC4)ncnc32)cc1",
    "viability (%)": 83.5
  },
  {
    "Compound": "O=C(Nc1ccc2snnc2c1)N1CCN(c2ccccc2)CC1",
    "viability (%)": 81.5
  },
  {
    "Compound": "C=C(C)Cn1c(-c2ccccc2)nc2ccccc21",
    "viability (%)": 80
  },
  {
    "Compound": "CCOc1ccc(-c2nnc(SCC(=O)N3CCN(c4ccccc4)CC3)o2)cc1",
    "viability (%)": 103
  },
  {
    "Compound": "COC(=O)c1oc2ccc(Br)cc2c1NC(C)=O",
    "viability (%)": 94
  },
  {
    "Compound": "Cn1c(SCC(=O)c2cc3ccccc3o2)nnc1-c1ccccc1",
    "viability (%)": 96.5
  },
  {
    "Compound": "CCCCN(C)C(=O)c1cn(C)c2ccc(S(=O)(=O)N(C)C)cc2c1=O",
    "viability (%)": 96
  },
  {
    "Compound": "Cc1cccc(NC(=O)c2ccccc2O)c1C",
    "viability (%)": 60
  },
  {
    "Compound": "O=C(NCCN1C(=O)C2C3C=CC(C3)C2C1=O)Nc1ccccn1 (stereo not drawn)",
    "viability (%)": 114
  },
  {
    "Compound": "CN(C)CCCNC(=O)CCC1CCCCC1",
    "viability (%)": 93
  },
  {
    "Compound": "CCOc1ccc(OCCCCN(C)C)cc1",
    "viability (%)": 89
  },
  {
    "Compound": "COc1ccc(-c2nc(CS(=O)CC(=O)NCc3ccccn3)c(C)o2)cc1 (stereo not drawn)",
    "viability (%)": 103
  },
  {
    "Compound": "O=C(Cn1cc2c(n1)CCCCC2)N1CCc2ccccc2C1",
    "viability (%)": 116
  },
  {
    "Compound": "CCOc1cc(C2C3=C(CCCC3=O)N(C)C3=C2C(=O)CCC3)cc(Cl)c1O",
    "viability (%)": 106
  },
  {
    "Compound": "CCCCn1c2c(c3ccccc31)CCc1nonc1-2",
    "viability (%)": 107
  },
  {
    "Compound": "CCCCn1c(CN2CCN(c3ccccc3)CC2)nc2c1c(=O)n(C)c(=O)n2C",
    "viability (%)": 89
  },
  {
    "Compound": "CC1=C(C(N)=O)C(c2ccccn2)n2nc(-c3ccccc3Cl)nc2N1 (stereo not drawn)",
    "viability (%)": 98
  },
  {
    "Compound": "COc1ccccc1N1CCN(CC(O)c2ccc3cc[nH]c3c2)CC1 (stereo not drawn)",
    "viability (%)": 99
  },
  {
    "Compound": "CCN(CCNC(=O)C1CCN(S(=O)(=O)c2cccc3cccnc23)CC1)c1ccccc1",
    "viability (%)": 87
  },
  {
    "Compound": "C(=N\\n1cnnc1)/c1cccc(OCCOc2ccccc2)c1",
    "viability (%)": 76
  },
  {
    "Compound": "O=C(CCS(=O)(=O)c1cccc2nsnc12)NCc1ccccc1",
    "viability (%)": 93.5
  }
]
